- Tested on: Cesa1_P1010L, fpx2-2 mutant line
- test protocol: Greenhouse phytotox, pre-emergent treatment
- Type: in vivo, Arabidopsis thaliana
- run parameters: 0.25 g ai/ha
readout label: Phytotox value on a scale from 0-100 (100 is 100% damage)
Please reply with the number alone, leaving off any unit.

Exercise: Suppose we examine the compound CC(C)(F)c1nc(N)nc(Nc2c(F)c(F)c(F)c(F)c2F)n1 ; what Phytotox value on a scale from 0-100 (100 is 100% damage) value has been reported?
Solution: 50

Exercise: Suppose we examine the compound CC(C)(F)c1nc(N)nc(Nc2nc(F)c(F)c(Cl)c2F)n1 ; what Phytotox value on a scale from 0-100 (100 is 100% damage) value has been reported?
Solution: 25

Exercise: Suppose we examine the compound CC(C)(F)c1nc(N)nc(Nc2c(F)c(F)c(Br)c(F)c2F)n1 ; what Phytotox value on a scale from 0-100 (100 is 100% damage) value has been reported?
Solution: 25

Exercise: Suppose we examine the compound Nc1nc(Nc2c(F)c(F)c(F)c(F)c2F)nc(C2CCCC2)n1 ; what Phytotox value on a scale from 0-100 (100 is 100% damage) value has been reported?
Solution: 0

Data provenance is patent US12480137B2.
